# Test system: Setaria faberi (SETFA)
# assay-name: Example A pre-emergence herbicidal activity, glasshouse pot test
# Format: in vivo
# condition-set: 480 h, rate 500 g/ha, evaluated 20 days later, 100=total damage to plant, 0=no damage to plant
# Experimental: Seeds of a variety of test species were sown in standard soil in pots. […] The test plants were then grown in a greenhouse under optimum conditions until, 15 days later for post-emergence and 20 days for pre-emergence, the test was evaluated (100=total damage to plant; 0=no damage to plant). […]
observable: pest or weed control at 500 g/ha
Units required after the number.

molecule	pest or weed control at 500 g/ha
CCc1ccc(-c2ccc(Cl)cc2)cc1C1=C(O)CC(CC2CCOC2)CC1=O (centres unmarked)	80%
CCc1cc(C)cc(CC)c1C1=C(O)CC(CC2CCS(=O)(=O)CC2)CC1=O (centres unmarked)	100%
CCc1ccccc1C1=C(O)CC(CC2CCOCC2)CC1=O (centres unmarked)	100%
Cc1cc(C)c(C2=C(O)CC(C(C)C3CCOCC3)CC2=O)c(C)c1 (centres unmarked)	60%

Form entry - test system: Setaria faberi (SETFA); read-out: pest or weed control at 500 g/ha; molecule: Cc1cc(C)c(C2=C(O)CC(CC3CCOC3)CC2=O)c(C)c1 (centres unmarked)
90%
